Each entry below lists one item and its recorded IC50 value.
Target: UniProt Q72547
Test: Inhibition of recombinant wild type HIV-1 reverse transcriptase p66/p51 using poly(rA)/oligo(dT)16 as template/primer after 40 mins by ELISA
metric name: IC50 (µM)

| structure | study system | u | bound sign | measured value |
| --- | --- | --- | --- | --- |
| N#Cc1ccc(Nc2nccc(Oc3ccc(C(=O)CC(=O)C(=O)O)cc3)n2)cc1 | UniProt Q72547 | µM | = | 25.2 |
| CCOC(=O)C(=O)CC(=O)c1ccc(Oc2ccnc(Nc3ccc(C#N)cc3)n2)cc1 | UniProt Q72547 | µM | = | 5.86 |
| N#Cc1ccc(Nc2nccc(Oc3cccc(C(=O)CC(=O)C(=O)O)c3)n2)cc1 | UniProt Q72547 | µM | = | 5.93 |
| O=C(O)/C(O)=C/C(=O)c1cccc(Cc2ccccc2)c1 | UniProt Q72547 | µM | > | 100 |
| CCOC(=O)C(=O)CC(=O)c1cccc(Oc2ccnc(Nc3ccc(C#N)cc3)n2)c1 | UniProt Q72547 | µM | = | 6.06 |

---

System: Human immunodeficiency virus 1
Test: Antiviral activity against HIV1 harboring reverse transcriptase K103N mutant infected in human MT4 cells assessed as inhibition of viral replication after 5 days by MTT assay
Assay type: functional, cell-based
Conditions: Human immunodeficiency virus 1, MT4, 120 h
metric name: EC50

| molecule | study system | metric name | measured value |
| --- | --- | --- | --- |
| CCOC(=O)C(=O)CC(=O)c1ccc(Oc2ccnc(Nc3ccc(C#N)cc3)n2)cc1 | Human immunodeficiency virus 1 | EC50 | 10 µM |
| Cc1ccnc2c1NC(=O)c1cccnc1N2C1CC1 [NEVIRAPINE] | Human immunodeficiency virus 1 | EC50 | > 15 µM |
| Cc1cn([C@H]2C[C@H](N=[N+]=[N-])[C@@H](CO)O2)c(=O)[nH]c1=O [ZIDOVUDINE] | Human immunodeficiency virus 1 | EC50 | 0.016 µM |
| O=C1Nc2ccc(Cl)cc2[C@@](C#CC2CC2)(C(F)(F)F)O1 [EFAVIRENZ] | Human immunodeficiency virus 1 | EC50 | 0.12 to 0.17 µM |
| N#Cc1ccc(Nc2nccc(Oc3ccc(C(=O)CC(=O)C(=O)O)cc3)n2)cc1 | Human immunodeficiency virus 1 | EC50 | 42 to 48 µM |
| CCOC(=O)C(=O)CC(=O)c1cccc(Oc2ccnc(Nc3ccc(C#N)cc3)n2)c1 | Human immunodeficiency virus 1 | EC50 | 13 to 14 µM |
| Cc1cc(C#N)cc(C)c1Oc1nc(Nc2ccc(C#N)cc2)nc(N)c1Br [ETRAVIRINE] | Human immunodeficiency virus 1 | EC50 | 0.0036 to 0.004 µM |
| N#Cc1ccc(Nc2nccc(Oc3cccc(C(=O)CC(=O)C(=O)O)c3)n2)cc1 | Human immunodeficiency virus 1 | EC50 | 38 µM |

---

Assay: Selectivity index, ratio of CC50 for human MT4 cells to EC50 for wild type HIV1 3B
Format: toxicity
Conditions: read-out: Ratio CC50/EC50
Each entry below lists one item and its recorded selectivity ratio value.
metric name: selectivity ratio

| structure | metric name | measured value |
| --- | --- | --- |
| O=C(O)C(=O)CC(=O)c1cccc(O)c1 | selectivity ratio | < 1 |
| CCOC(=O)C(=O)CC(=O)c1ccc(Oc2ccnc(Nc3ccc(C#N)cc3)n2)cc1 | selectivity ratio | 95 |
| O=C1Nc2ccc(Cl)cc2[C@@](C#CC2CC2)(C(F)(F)F)O1 | selectivity ratio | 1720 to 2510 |
| O=C(O)/C(O)=C/C(=O)c1cccc(Cc2ccccc2)c1 | selectivity ratio | > 61 |
| Cc1cn([C@H]2C[C@H](N=[N+]=[N-])[C@@H](CO)O2)c(=O)[nH]c1=O | selectivity ratio | 971 to 974 |
